Test: Single-dose pharmacokinetics in monkeys (p.o. and i.v.)
Type: in vivo, monkey
Settings: monkey, plasma, po, 1.5 mg/kg; monkeys, p.o. vs i.v.; read-out: F (bioavailability)
measurementLabel: bioavailability (%)

molecule: CC#C[C@@H](CC(=O)O)c1ccc(OCC(C)=C(C)C)cc1 [CPL207280]
endpointUnit: %
measuredNumber: 99

* * *

Biological target: OATP1B3 (Homo sapiens)
Sequence (Q9NPD5 whole entry): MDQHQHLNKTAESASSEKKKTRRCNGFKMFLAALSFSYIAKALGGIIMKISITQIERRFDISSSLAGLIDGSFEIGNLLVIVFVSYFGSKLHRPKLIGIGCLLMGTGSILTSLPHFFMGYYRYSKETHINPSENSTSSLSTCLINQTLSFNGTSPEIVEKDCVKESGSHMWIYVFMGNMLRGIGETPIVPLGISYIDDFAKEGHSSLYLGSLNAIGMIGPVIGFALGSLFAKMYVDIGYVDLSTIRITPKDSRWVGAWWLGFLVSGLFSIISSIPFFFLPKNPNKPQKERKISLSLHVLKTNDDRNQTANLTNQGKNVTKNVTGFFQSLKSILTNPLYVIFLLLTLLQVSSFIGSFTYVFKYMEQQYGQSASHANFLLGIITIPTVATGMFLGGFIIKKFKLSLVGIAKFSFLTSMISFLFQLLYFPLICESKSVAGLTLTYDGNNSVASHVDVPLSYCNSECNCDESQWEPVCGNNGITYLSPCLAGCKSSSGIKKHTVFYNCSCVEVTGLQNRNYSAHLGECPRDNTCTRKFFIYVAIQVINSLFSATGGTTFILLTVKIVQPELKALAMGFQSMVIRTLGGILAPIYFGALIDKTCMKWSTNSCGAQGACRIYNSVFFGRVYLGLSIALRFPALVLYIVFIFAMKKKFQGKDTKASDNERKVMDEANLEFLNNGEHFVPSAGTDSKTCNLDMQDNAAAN
Assay: Uptake transporter inhibition assay, OATP1B3
Conditions: human, transformed HEK cells expressing OATP1B3, pH 7.4
pIC50: −log10 of the molar value.
measurementLabel: pIC50

chemSmiles: CC#C[C@@H](CC(=O)O)c1ccc(OCC(C)=C(C)C)cc1
measuredNumber: 4.37
